Tested on: hIL-6 mRNA
Assay: Inhibition of hIL-6 mRNA transcription in LPS-stimulated U937 cells
Format: cell-based
Conditions: Homo sapiens, U-937; PMA-differentiated U937 cells, 1 h pretreatment, 1 ug/mL LPS stimulation, 3 h; read-out: IL-6 activity (Inhibition of hIL-6 mRNA Transcription)
IC50 listing for selected compounds.

>  <Compound>
CCNc1nc2ncc(-c3c(C)noc3C)cc2n1C(C)c1ccccc1 (centres unmarked)

>  <IC50>
≤ 300 nM

$$$$
>  <Compound>
Cc1noc(C)c1-c1cc(N)c2ncn(Cc3ccc(F)cc3)c2c1

>  <IC50>
300 to 3000 nM

$$$$
>  <Compound>
Cc1noc(C)c1-c1cc(C(N)=O)c2[nH]c(=O)n(Cc3ccccc3)c2c1

>  <IC50>
≤ 300 nM

$$$$
>  <Compound>
Cc1noc(C)c1-c1cc(N)c2nc(N3CCOCC3)n(Cc3ccccc3)c2c1

>  <IC50>
≤ 300 nM

$$$$
>  <Compound>
Cc1noc(C)c1-c1cc(N)c2ccn(Cc3ccc(F)cc3)c2n1

>  <IC50>
300 to 3000 nM

$$$$
>  <Compound>
Cc1noc(C)c1-c1cnc2nc(NC3CCC(O)CC3)n(Cc3ccccc3)c2c1 (centres unmarked)

>  <IC50>
≤ 300 nM

$$$$
>  <Compound>
Cc1noc(C)c1-c1cnc2c(C=O)cn(Cc3ccccc3)c2c1

>  <IC50>
300 to 3000 nM

$$$$
>  <Compound>
CCn1c(=O)n(Cc2ccccc2)c2cc(-c3c(C)noc3C)ccc21

>  <IC50>
300 to 3000 nM

$$$$

----------
System: hIL-6 mRNA
Test: Inhibition of hIL-6 mRNA transcription in LPS-stimulated U937 cells
Format: cell-based
Conditions: Homo sapiens, U-937; PMA-differentiated U937 cells, 1 h pretreatment, 1 ug/mL LPS stimulation, 3 h; read-out: IL-6 activity (Inhibition of hIL-6 mRNA Transcription)
pIC50: −log10 of the molar value.

>  <Compound>
Cc1noc(C)c1-c1cnc2nc(C)n(Cc3ccc(Cl)c(Cl)c3)c2c1 [compound 95]

>  <Experimental target>
hIL-6 mRNA

>  <pIC50>
5.52 to 6.52

$$$$
>  <Compound>
Cc1noc(C)c1-c1cc(N)c2nc(C)n([C@@H](C)c3ccccc3)c2c1 [compound 143]

>  <Experimental target>
hIL-6 mRNA

>  <pIC50>
≥ 6.52

$$$$
>  <Compound>
Cc1ccc(Cn2c(C)nc3ncc(-c4c(C)noc4C)cc32)s1 [compound 76]

>  <Experimental target>
hIL-6 mRNA

>  <pIC50>
5.52 to 6.52

$$$$
>  <Compound>
Cc1noc(C)c1-c1cc(N)c2nc(C)n(Cc3ccccc3)c2c1 [Example Compound 55]

>  <Experimental target>
hIL-6 mRNA

>  <pIC50>
≥ 6.52

$$$$
>  <Compound>
Cc1noc(C)c1-c1cc(N)c2ncn(Cc3ccccc3)c2c1 [Example Compound 7]

>  <Experimental target>
hIL-6 mRNA

>  <pIC50>
≥ 6.52

$$$$
>  <Compound>
Cc1noc(C)c1-c1cnc2nc(C)n(Cc3ccc(O)cc3)c2c1 [compound 84]

>  <Experimental target>
hIL-6 mRNA

>  <pIC50>
5.52 to 6.52

$$$$
>  <Compound>
Cc1noc(C)c1-c1cnc2cnn(Cc3ccc(F)cc3)c2c1 [Example Compound 51]

>  <Experimental target>
hIL-6 mRNA

>  <pIC50>
5.52 to 6.52

$$$$
>  <Compound>
Cc1noc(C)c1-c1cc(NCc2ccccc2)c2ncn(Cc3ccccc3)c2c1 [Example Compound 9]

>  <Experimental target>
hIL-6 mRNA

>  <pIC50>
4.52 to 5.52

$$$$
>  <Compound>
Cc1noc(C)c1-c1cnc2c(N)cn(Cc3ccccc3)c2c1 [compound 100]

>  <Experimental target>
hIL-6 mRNA

>  <pIC50>
5.52 to 6.52

$$$$
>  <Compound>
CCS(=O)(=O)Nc1cc(-c2c(C)noc2C)cc2c1nc(C)n2Cc1ccccc1 [Example Compound 65]

>  <Experimental target>
hIL-6 mRNA

>  <pIC50>
5.52 to 6.52

$$$$
>  <Compound>
CCOc1nc2c(N)cc(-c3c(C)noc3C)cc2n1Cc1ccccc1 [Example Compound 17]

>  <Experimental target>
hIL-6 mRNA

>  <pIC50>
5.52 to 6.52

$$$$
>  <Compound>
Cc1noc(C)c1-c1cc2c(ccn2Cc2ccccc2)[nH]c1=O [Example Compound 56]

>  <Experimental target>
hIL-6 mRNA

>  <pIC50>
4.52 to 5.52

$$$$
>  <Compound>
Cc1noc(C)c1-c1cnc2ccn(Cc3ccccc3)c2c1 [compound 71]

>  <Experimental target>
hIL-6 mRNA

>  <pIC50>
5.52 to 6.52

$$$$
>  <Compound>
Cc1noc(C)c1-c1cnc2c(c1)ncn2Cc1ccc(Cl)cc1 [Example Compound 42]

>  <Experimental target>
hIL-6 mRNA

>  <pIC50>
4.52 to 5.52

$$$$
>  <Compound>
Cc1noc(C)c1-c1cc(N)c2nc(N3CCC3)n(Cc3ccccc3)c2c1 [compound 97]

>  <Experimental target>
hIL-6 mRNA

>  <pIC50>
≥ 6.52

$$$$
>  <Compound>
COCCNc1nc2c([N+](=O)[O-])cc(-c3c(C)noc3C)cc2n1Cc1ccccc1 [compound 137]

>  <Experimental target>
hIL-6 mRNA

>  <pIC50>
≥ 6.52

$$$$
>  <Compound>
Cc1noc(C)c1-c1cnc2nc(C)n(Cc3ccncc3)c2c1 [compound 74]

>  <Experimental target>
hIL-6 mRNA

>  <pIC50>
5.52 to 6.52

$$$$
>  <Compound>
Cc1noc(C)c1-c1cc2c(c(C)nn2Cc2ccc(F)cc2)[n+]([O-])c1 [Example Compound 24]

>  <Experimental target>
hIL-6 mRNA

>  <pIC50>
5.52 to 6.52

$$$$
>  <Compound>
Cc1noc(C)c1-c1cnc2[nH]c(=O)n(Cc3ccc(Cl)cc3)c2c1 [compound 105]

>  <Experimental target>
hIL-6 mRNA

>  <pIC50>
5.52 to 6.52

$$$$
>  <Compound>
Cc1noc(C)c1-c1cc(N)c2nc(NC3CCOCC3)n(Cc3ccccc3)c2c1 [compound 109]

>  <Experimental target>
hIL-6 mRNA

>  <pIC50>
≥ 6.52

$$$$
>  <Compound>
Cc1noc(C)c1-c1cc(N)c2nc(N3CCCC3)n(Cc3ccccc3)c2c1 [compound 140]

>  <Experimental target>
hIL-6 mRNA

>  <pIC50>
≥ 6.52

$$$$
>  <Compound>
Cc1noc(C)c1-c1cnc2nc(NCc3ccccc3)n(Cc3ccccc3)c2c1 [compound 153]

>  <Experimental target>
hIL-6 mRNA

>  <pIC50>
≥ 6.52

$$$$
>  <Compound>
Cc1noc(C)c1-c1cnc2nc(C)n(CC3CC3)c2c1 [Example Compound 63]

>  <Experimental target>
hIL-6 mRNA

>  <pIC50>
5.52 to 6.52

$$$$
>  <Compound>
Cc1noc(C)c1-c1cc(F)c2nc(C)n(Cc3ccccc3)c2c1 [compound 158]

>  <Experimental target>
hIL-6 mRNA

>  <pIC50>
5.52 to 6.52

$$$$
>  <Compound>
Cc1noc(C)c1-c1cc([N+](=O)[O-])c2nc(C)n(CC3CCCC3)c2c1 [compound 117]

>  <Experimental target>
hIL-6 mRNA

>  <pIC50>
≥ 6.52

$$$$
>  <Compound>
CC(=O)Nc1cn(Cc2ccccc2)c2cc(-c3c(C)noc3C)cnc12 [compound 99]

>  <Experimental target>
hIL-6 mRNA

>  <pIC50>
5.52 to 6.52

$$$$
>  <Compound>
Cc1noc(C)c1-c1cc(CN)c2[nH]c(=O)n(Cc3ccccc3)c2c1 [Example Compound 22]

>  <Experimental target>
hIL-6 mRNA

>  <pIC50>
5.52 to 6.52

$$$$
>  <Compound>
Cc1noc(C)c1-c1cnc2ccn(Cc3ccc(F)cc3)c2c1 [Example Compound 48]

>  <Experimental target>
hIL-6 mRNA

>  <pIC50>
5.52 to 6.52

$$$$
>  <Compound>
Cc1noc(C)c1-c1cnc2nc(C)n(Cc3ccc(F)cc3)c2c1 [Example Compound 58]

>  <Experimental target>
hIL-6 mRNA

>  <pIC50>
5.52 to 6.52

$$$$
>  <Compound>
CC(=O)Nc1cc(-c2c(C)noc2C)cc2c1nc(C)n2Cc1ccccc1 [Example Compound 64]

>  <Experimental target>
hIL-6 mRNA

>  <pIC50>
≥ 6.52

$$$$
>  <Compound>
Cc1noc(C)c1-c1cnc2nc(C)n(Cc3ccc(C#N)cc3)c2c1 [compound 70]

>  <Experimental target>
hIL-6 mRNA

>  <pIC50>
5.52 to 6.52

$$$$
>  <Compound>
Cc1nc2ncc(-c3ccnn3C)cc2n1Cc1ccccc1 [compound 154]

>  <Experimental target>
hIL-6 mRNA

>  <pIC50>
4.52 to 5.52

$$$$
>  <Compound>
Cc1noc(C)c1-c1cc(N)c2nc(NCc3ccccc3)n(Cc3ccccc3)c2c1 [compound 152]

>  <Experimental target>
hIL-6 mRNA

>  <pIC50>
≥ 6.52

$$$$
>  <Compound>
Cc1noc(C)c1-c1cnc2nc(C)n(Cc3cccnc3)c2c1 [compound 68]

>  <Experimental target>
hIL-6 mRNA

>  <pIC50>
5.52 to 6.52

$$$$
>  <Compound>
Cc1noc(C)c1-c1cnc2nc(N3CCC3)n(Cc3ccccc3)c2c1 [compound 123]

>  <Experimental target>
hIL-6 mRNA

>  <pIC50>
≥ 6.52

$$$$
